All figures here come from patent US8507539B2.

I'd appreciate it if you could supply pIC50 values for the items below.
TARGET_UNDER_TEST: hKv1.3 (Homo sapiens, UniProt P22001)
Sequence (P22001 whole entry): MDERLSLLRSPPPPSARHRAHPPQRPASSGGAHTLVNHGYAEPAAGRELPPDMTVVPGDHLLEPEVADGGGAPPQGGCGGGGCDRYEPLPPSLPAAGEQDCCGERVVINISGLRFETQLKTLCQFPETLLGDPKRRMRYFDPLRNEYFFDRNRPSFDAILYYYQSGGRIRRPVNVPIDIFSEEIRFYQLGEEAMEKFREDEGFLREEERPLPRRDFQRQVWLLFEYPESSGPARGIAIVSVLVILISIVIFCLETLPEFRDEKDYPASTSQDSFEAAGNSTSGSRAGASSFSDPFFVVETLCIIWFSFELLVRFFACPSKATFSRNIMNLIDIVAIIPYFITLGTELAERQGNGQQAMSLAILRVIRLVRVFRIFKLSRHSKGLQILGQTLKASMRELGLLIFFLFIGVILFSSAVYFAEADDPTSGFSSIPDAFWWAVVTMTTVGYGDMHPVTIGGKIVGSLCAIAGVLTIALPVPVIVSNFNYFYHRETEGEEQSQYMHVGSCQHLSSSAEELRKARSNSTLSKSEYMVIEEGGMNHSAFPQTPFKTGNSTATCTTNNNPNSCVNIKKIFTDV
EXPERIMENTAL_PROTOCOL: Whole-cell patch-clamp block of Kv1.3 current in CHO cells stably expressing hKv1.3
Format: cell-based
APPLIED_CONDITIONS: CHO cells stably expressing hKv1.3, whole-cell patch clamp; reported as ranges; read-out: IC50 (Kv1.3)
pIC50: −log10 of the molar value.

Some molecules with known pIC50 results, for comparison:
[
  {
    "MOLECULE": "CC(=O)c1c(OCCN(C)C)c(OCCC(C)c2ccc(F)cc2)c2oc(C)nc2c1C (centres unmarked)",
    "REPORTED_ENDPOINT": "pIC50",
    "OBSERVED_RESULT": "6.00 to 6.70"
  },
  {
    "MOLECULE": "CC(=O)c1c(OCCN2CCCC(F)(F)C2)c(OCCC(C)c2ccc(F)cc2)c2oc(C)nc2c1C (centres unmarked)",
    "REPORTED_ENDPOINT": "pIC50",
    "OBSERVED_RESULT": "> 7.30"
  },
  {
    "MOLECULE": "CC(=O)c1c(OCCN2CCCC(F)(F)C2)c(OCCC(C)c2ccc(F)cc2)c2oc(C)nc2c1Cl (centres unmarked)",
    "REPORTED_ENDPOINT": "pIC50",
    "OBSERVED_RESULT": "6.70 to 7.30"
  }
]

Please supply pIC50 for each of the following items, keeping them in order.
1. CC(=O)c1c(OCCN2CCOCC2)c(OCCCc2ccccc2)c2oc(C)nc2c1Cl [Example 37j]
2. CC(=O)c1c(OCCN2CCOCC2)c(OCCC(C)c2ccc(F)cc2)c2ocnc2c1C (centres unmarked)
3. CC(=O)c1c(OC2CCN(C3CCCC3)CC2)c(OCCC(C)c2ccc(F)cc2)c2oc(C)nc2c1C (centres unmarked) [Example 40c]
4. CC(=O)c1c(OCCN2CC[S+]([O-])CC2)c(OCCC(C)c2ccc(F)cc2)c2oc(C)nc2c1C (centres unmarked)
5. CC(=O)c1c(OCCNC2CCCCC2)c(OCCC(C)c2ccc(F)cc2)c2oc(C)nc2c1C (centres unmarked)

Result ::
6.00 to 6.70
> 7.30
6.70 to 7.30
6.70 to 7.30
> 7.30

Please supply pIC50 for each of the following items, keeping them in order.
1. Cc1nc2c(C)c(C(C)O)c(OCCN3CCSCC3)c(OCCC(C)c3ccc(F)cc3)c2o1 (centres unmarked)
2. CC(=O)c1c(OCCN2CCC(=O)CC2)c(OCCC(C)c2ccc(F)cc2)c2oc(C)nc2c1C (centres unmarked)
3. CC(=O)c1c(OCCn2ccnc2C)c(OCCC(C)c2ccc(F)cc2)c2oc(C(C)C)nc2c1C (centres unmarked)
4. CC(=O)c1c(OCCN(C)C)c(OCCC(C)c2ccc(F)cc2)c2ocnc2c1C (centres unmarked)
5. CC(=O)c1c(OCCN2CCC(C)(O)CC2)c(OCCC(C)c2ccc(F)cc2)c2oc(C)nc2c1C (centres unmarked)
6. CC(=O)c1c(OCCN2CCOCC2)c(OCCC(C)c2ccc(F)cc2)c2oc(C)nc2c1Cl (centres unmarked) [Example 38h]
7. CC(=O)c1c(OCCN2CCS(=O)(=O)CC2)c(OCCC(C)c2ccc(F)cc2)c2oc(C)nc2c1C (centres unmarked)
8. CC(=O)c1c(OCCN2CCOCC2)c(OCCC(C)c2ccc(F)cc2)c2oc(C(F)(F)F)nc2c1C (centres unmarked) [Example 28c]

Result ::
["> 7.30", "6.70 to 7.30", "6.00 to 6.70", "6.00 to 6.70", "6.70 to 7.30", "6.70 to 7.30", "> 7.30", "6.70 to 7.30"]

Please supply pIC50 for each of the following items, keeping them in order.
1. CC(=O)c1c(OCCN2CCCCC2)c(OCCC(C)c2ccc(F)cc2)c2oc(C)nc2c1C (centres unmarked)
2. CC(=O)c1c(OCCNC(C)(C)C)c(OCCC(C)c2ccc(F)cc2)c2oc(C)nc2c1C (centres unmarked)
3. CC(=O)c1c(OCCc2cccc[n+]2[O-])c(OCCC(C)c2ccc(F)cc2)c2oc(C)nc2c1C (centres unmarked)
4. CC(=O)c1c(OCCn2ccnc2)c(OCCC(C)c2ccc(F)cc2)c2oc(C)nc2c1C (centres unmarked) [Example 10b]
5. CC(=O)c1c(OCCN2CCN(C)CC2)c(OCCC(C)c2ccc(F)cc2)c2oc(C)nc2c1C (centres unmarked)
6. CC(=O)c1c(OCCN)c(OCCC(C)c2ccc(F)cc2)c2oc(C)nc2c1C (centres unmarked)
7. CC(=O)c1c(OCCn2ccnc2)c(OCCC(C)c2ccc(F)cc2)c2ocnc2c1C (centres unmarked)

Result ::
1: > 7.30; 2: 6.00 to 6.70; 3: 6.00 to 6.70; 4: 6.70 to 7.30; 5: 6.00 to 6.70; 6: 6.00 to 6.70; 7: > 7.30
